- Tested on: rabbit reticulocyte lysate system
- EXPERIMENTAL PROTOCOL: In vitro translation efficiency of capped luciferase mRNA with 31-base poly(A) tail, method II transcripts
- Format: biochemical
- MEASUREMENT SETUP: experiment 5
REPORTED METRIC: Translation efficiency in comparison to m^7GpppG-LUC-(A)31 mRNA, Experiment No. 5

[BH3-]P(=O)(OP(=O)(O)OCC1OC(n2cnc3c(=O)[nH]c(N)nc32)C(O)C1O)OP(=O)(O)OCC1OC(n2c[n+](C)c3c(=O)[nH]c(N)nc32)C(OC)C1O (single isomer, unassigned) [m2^7,2′-OGppBH3pG (D2), m2^7,2′-OGppBH3pG] :: 3.53
[BH3-]P(=O)(OP(=O)(O)OCC1OC(n2cnc3c(=O)[nH]c(N)nc32)C(O)C1O)OP(=O)(O)OCC1OC(n2c[n+](C)c3c(=O)[nH]c(N)nc32)C(OC)C1O (single isomer, unassigned) [m2^7,2′-OGppBH3pG (D1), m2^7,2′-OGppBH3pG] :: 3.44
[BH3-]P(=O)(OC[C@H]1O[C@@H](n2cnc3c(=O)[nH]c(N)nc32)[C@H](O)[C@@H]1O)OP(=O)(O)OP(=O)(O)OC[C@H]1O[C@@H](n2c[n+](C)c3c(=O)[nH]c(N)nc32)[C@H](OC)[C@@H]1O (single isomer, unassigned) [m2^7,2′-OGpppBH3G (D2), m2^7,2′-OGpppBH3G] :: 1.92
CO[C@H]1[C@@H](O)[C@H]([n+]2cn(C)c3c(=O)[nH]c(N)nc32)O[C@@H]1COP(=O)([O-])OP(=O)(O)OP(=O)(O)OC[C@H]1O[C@@H](n2cnc3c(=O)[nH]c(N)nc32)[C@H](O)[C@@H]1O [m2^7,3′-OGpppG, 7-methyl(3′-O-methyl)GpppG, reference compound] :: 2.08
Nc1nc2c(ncn2[C@@H]2O[C@H](COP(=O)(O)OP(=O)(O)OP(=O)(O)OC[C@H]3O[C@@H](n4cnc5c(N)ncnc54)[C@H](O)[C@@H]3O)[C@@H](O)[C@H]2O)c(=O)[nH]1 [ApppG, reference compound] :: 0.18
CO[C@@H]1[C@H](O)[C@@H](COP(=O)([O-])OP(O)(=S)OP(=O)(O)OC[C@H]2O[C@@H](n3cnc4c(=O)[nH]c(N)nc43)[C@H](O)[C@@H]2O)O[C@H]1[n+]1cn(C)c2c(=O)[nH]c(N)nc21 (single isomer, unassigned) [m2^7,2′-OGppSpG (D2), m2^7,2′-OGppSpG, reference compound] :: 3.02
[BH3-]P(=O)(OP(=O)(O)OCC1OC(n2cnc3c(=O)[nH]c(N)nc32)C(O)C1O)OP(=O)(O)OCC1OC(n2c[n+](C)c3c(=O)[nH]c(N)nc32)C(O)C1O (single isomer, unassigned) [m^7GppBH3pG (D1), m^7GppBH3pG] :: 2.17

----------
- STUDY TARGET: Human DcpS (Homo sapiens, UniProt Q96C86)
- Construct: made in house; host or cells: Escherichia coli
- EXPERIMENTAL PROTOCOL: Assay of susceptibility to DcpS (RP HPLC)
- Type: biochemical
- MEASUREMENT SETUP: 40 μM cap analog, 30° C., up to 120 min
- Description: Human DcpS was expressed in Escherichia coli as described in L. Cohen et al., “Nematode m^7GpppG and m3^2,2,7GpppG decapping: activities in Ascaris embryos and characterization of C. elegans scavenger DcpS,” RNA, vol. 10, pp. 1609-1624 (2004). […] Samples were analyzed without further treatment by analytical RP HPLC with a linear gradient of methanol in 0.1 M KH2PO4, pH 6.0, from 0-50% over 15 min.
REPORTED METRIC: Susceptibility to DcpS

C[n+]1cn([C@@H]2O[C@H](COP(=O)(O)OP(=O)(O)OP(=O)(O)OC[C@H]3O[C@@H](n4c[n+](C)c5c(=O)[nH]c(N)nc54)[C@H](O)[C@@H]3O)[C@@H](O)[C@H]2O)c2nc(N)[nH]c(=O)c21 [m^7Gpppm^7G, reference compound] :: hydrolyzed
CO[C@H]1[C@@H](O)[C@H]([n+]2cn(C)c3c(=O)[nH]c(N)nc32)O[C@@H]1COP(=O)([O-])OP(=O)(O)OP(=O)(O)OC[C@H]1O[C@@H](n2cnc3c(=O)[nH]c(N)nc32)[C@H](O)[C@@H]1O [m2^7,3′-OGpppG, 7-methyl(3′-O-methyl)GpppG, reference compound] :: hydrolyzed
[BH3-]P(=O)(OP(=O)(O)OCC1OC(n2cnc3c(=O)[nH]c(N)nc32)C(O)C1O)OP(=O)(O)OCC1OC(n2c[n+](C)c3c(=O)[nH]c(N)nc32)C(OC)C1O (single isomer, unassigned) [m2^7,2′-OGppBH3pG (D2), m2^7,2′-OGppBH3pG] :: resistant
[BH3-]P(=O)(OP(=O)(O)OCC1OC(n2cnc3c(=O)[nH]c(N)nc32)C(O)C1O)OP(=O)(O)OCC1OC(n2c[n+](C)c3c(=O)[nH]c(N)nc32)C(OC)C1O (single isomer, unassigned) [m2^7,2′-OGppBH3pG (D1), m2^7,2′-OGppBH3pG] :: resistant
[BH3-]P(=O)(OC[C@H]1O[C@@H](n2cnc3c(=O)[nH]c(N)nc32)[C@H](O)[C@@H]1O)OP(=O)(O)OP(=O)(O)OC[C@H]1O[C@@H](n2c[n+](C)c3c(=O)[nH]c(N)nc32)[C@H](O)[C@@H]1O (single isomer, unassigned) [m^7GpppBH3G (D1), m^7GpppBH3G] :: hydrolyzed
[BH3-]P(=O)(OC[C@H]1O[C@@H](n2cnc3c(=O)[nH]c(N)nc32)[C@H](O)[C@@H]1O)OP(=O)(O)OP(=O)(O)OC[C@H]1O[C@@H](n2c[n+](C)c3c(=O)[nH]c(N)nc32)[C@H](OC)[C@@H]1O (single isomer, unassigned) [m2^7,2′-OGpppBH3G (D1), m2^7,2′-OGpppBH3G] :: hydrolyzed
CO[C@@H]1[C@H](O)[C@@H](COP(=O)(O)OP(=O)([O-])OP(=O)(O)OC[C@H]2O[C@@H](n3cnc4c(=O)[nH]c(N)nc43)[C@H](O)[C@@H]2O)O[C@H]1n1c[n+](C)c2c(O)nc(N)nc21 [m2^7,2′-OGpppG, reference compound] :: hydrolyzed

----------
- STUDY TARGET: Human DcpS (Homo sapiens, UniProt Q96C86)
- Construct: made in house; host or cells: Escherichia coli
- Sequence (Q96C86 1-337): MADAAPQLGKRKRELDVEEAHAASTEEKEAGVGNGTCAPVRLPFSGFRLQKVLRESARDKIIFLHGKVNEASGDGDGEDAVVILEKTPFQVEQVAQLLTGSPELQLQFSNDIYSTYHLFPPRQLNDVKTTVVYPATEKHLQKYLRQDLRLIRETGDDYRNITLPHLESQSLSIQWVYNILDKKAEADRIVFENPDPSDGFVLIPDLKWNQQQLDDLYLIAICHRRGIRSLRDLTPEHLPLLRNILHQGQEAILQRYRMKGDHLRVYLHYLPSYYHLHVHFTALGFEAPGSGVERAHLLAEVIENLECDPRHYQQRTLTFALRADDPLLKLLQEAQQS
- EXPERIMENTAL PROTOCOL: Assay of susceptibility to DcpS (RP HPLC)
- Type: biochemical
- MEASUREMENT SETUP: Table 3
REPORTED METRIC: Susceptibility to DcpS

CO[C@H]1[C@@H](O)[C@H]([n+]2cn(C)c3c(=O)[nH]c(N)nc32)O[C@@H]1COP(=O)([O-])OP(=O)(O)OP(=O)(O)OC[C@H]1O[C@@H](n2cnc3c(=O)[nH]c(N)nc32)[C@H](O)[C@@H]1O [m2^7,3′-OGpppG, 7-methyl(3′-O-methyl)GpppG, reference compound] :: hydrolyzed
CO[C@@H]1[C@H](O)[C@@H](COP(=O)(O)OP(O)(=[Se])OP(=O)(O)OC[C@H]2O[C@@H](n3cnc4c(=O)[nH]c(N)nc43)[C@H](O)[C@@H]2O)O[C@H]1n1c[n+](C)c2c(=O)[nH]c(N)nc21 (single isomer, unassigned) [m2^7,2′-OGppSepG (D2), m2^7,2′-OGppSepG] :: hydrolyzed
Cn1c[n+]([C@@H]2O[C@H](COP(=O)(O)OP(=O)(O)OP(=O)(O)OC[C@H]3O[C@@H](n4cnc5c(=O)[nH]c(N)nc54)[C@H](O)[C@@H]3O)[C@@H](O)[C@H]2O)c2nc(N)[nH]c(=O)c21 [m^7GpppG, m^7G(5′)ppp(5′)G, reference compound] :: hydrolyzed
C[n+]1cn(C2OC(COP(O)(=[Se])OP(=O)([O-])OP(=O)(O)OCC3OC(n4cnc5c(=O)[nH]c(N)nc54)C(O)C3O)C(O)C2O)c2nc(N)[nH]c(=O)c21 (single isomer, unassigned) [m^7GpSeppG (D2), m^7GpSeppG] :: resistant
CO[C@@H]1[C@H](O)[C@@H](COP(=O)(O)OP(O)(=[Se])OP(=O)(O)OC[C@H]2O[C@@H](n3cnc4c(=O)[nH]c(N)nc43)[C@H](O)[C@@H]2O)O[C@H]1n1c[n+](C)c2c(=O)[nH]c(N)nc21 (single isomer, unassigned) [m2^7,2′-OGppSepG (D1), m2^7,2′-OGppSepG] :: hydrolyzed
CO[C@@H]1[C@H](O)[C@@H](COP(=O)(O)OP(=O)([O-])OP(=O)(O)OC[C@H]2O[C@@H](n3cnc4c(=O)[nH]c(N)nc43)[C@H](O)[C@@H]2O)O[C@H]1n1c[n+](C)c2c(O)nc(N)nc21 [m2^7,2′-OGpppG, reference compound] :: hydrolyzed
C[n+]1cn(C2OC(COP(O)(=[Se])OP(=O)([O-])OP(=O)(O)OCC3OC(n4cnc5c(=O)[nH]c(N)nc54)C(O)C3O)C(O)C2O)c2nc(N)[nH]c(=O)c21 (single isomer, unassigned) [m^7GpSeppG (D1), m^7GpSeppG] :: resistant

Ref: patent US8519110B2
